System: AML KG-1 human myeloid cell line
Assay: Test A: apoptosis induction in AML KG-1 cell line
Format: cell-based
Details: 1.0 μM; treatment time 48 h
Description: Inhibition of Cell Growth and Induction of Apoptosis in AML KG-1 Human Myeloid Cell Line. Methods for measuring the inhibition of cell growth and induction of apotosis followed literature procedures (Dawson, M. I., et al., J. Med. Chem., 2007, 50, 2622-2639).

>  <Compound>
O=C(O)CNc1cnc(-c2ccc(O)c(C34CC5CC(CC(C5)C3)C4)c2)nc1 [drawing 24]

>  <Apoptosis Induction (% control) 1.0 μM>
0

$$$$
>  <Compound>
O=C(O)/C=C/c1cnc(-c2ccc(O)c(C34CC5CC(CC(C5)C3)C4)c2)c(Cl)c1

>  <Apoptosis Induction (% control) 1.0 μM>
55

$$$$
>  <Compound>
O=C(O)/C=C/c1ccc(-c2ccc(O)c(C34CC5CC(CC(C5)C3)C4)c2)c(Cl)c1

>  <Apoptosis Induction (% control) 1.0 μM>
30

$$$$
>  <Compound>
O=C(O)/C=C/c1cnc(-c2ccc(O)c(C34CC5CC(CC(C5)C3)C4)c2)cn1 [drawing 30]

>  <Apoptosis Induction (% control) 1.0 μM>
39

$$$$
>  <Compound>
O=C(O)/C=C/c1ccc(-c2ccc(O)c(C34CC5CC(CC(C5)C3)C4)c2)nc1

>  <Apoptosis Induction (% control) 1.0 μM>
48

$$$$
>  <Compound>
O=C(O)/C=C/c1cnc(-c2ccc(O)c(C34CC5CC(CC(C5)C3)C4)c2)nc1 [drawing 23]

>  <Apoptosis Induction (% control) 1.0 μM>
40

$$$$
>  <Compound>
O=C(O)/C=C/c1ccc(-c2ccc(O)c(C34CC5CC(CC(C5)C3)C4)c2)nn1

>  <Apoptosis Induction (% control) 1.0 μM>
52

$$$$
>  <Compound>
CC(=O)Oc1ccc(-c2ccc(/C=C/C(=O)O)cn2)cc1C12CC3CC(CC(C3)C1)C2

>  <Apoptosis Induction (% control) 1.0 μM>
0

$$$$
>  <Compound>
O=C(O)/C=C/c1ccc(-c2ccc(O)c(C34CC5CC(CC(C5)C3)C4)c2)cn1

>  <Apoptosis Induction (% control) 1.0 μM>
36

$$$$
>  <Compound>
CCOC(=O)/C=C/c1ccc(-c2ccc(O)c(C34CC5CC(CC(C5)C3)C4)c2)nc1 [drawing 25]

>  <Apoptosis Induction (% control) 1.0 μM>
55

$$$$

---

assay: Test H: aqueous solubility by UV absorbance; assay type: physicochemical; conditions: phosphate-buffered saline, aqueous buffer, thermodynamic from solid; PBS pH 7.2; 22° C.; read-out: Solubility (μM) at 22° C. PBS (pH 7.2)
Overview of recorded solubility for various compounds
Readout type: solubility

>  <Molecular string>
O=C(O)/C=C/c1cnc(-c2ccc(O)c(C34CC5CC(CC(C5)C3)C4)c2)nc1

>  <Result value>
440 µM

$$$$
>  <Molecular string>
CCOC(=O)/C=C/c1ccc(-c2ccc(O)c(C34CC5CC(CC(C5)C3)C4)c2)nc1

>  <Result value>
14 µM

$$$$

---

test system: AML KG-1 human myeloid cell line; assay: Test A: apoptosis induction in AML KG-1 cell line; type: cell-based; details: 5.0 μM; treatment time 48 h

>  <Compound>
CC(=O)Oc1ccc(-c2ccc(/C=C/C(=O)O)cn2)cc1C12CC3CC(CC(C3)C1)C2

>  <Unit tag>
% control

>  <Apoptosis Induction (% control) 5.0 μM>
0

$$$$
>  <Compound>
O=C(O)CNc1cnc(-c2ccc(O)c(C34CC5CC(CC(C5)C3)C4)c2)nc1 [drawing 24]

>  <Unit tag>
% control

>  <Apoptosis Induction (% control) 5.0 μM>
0

$$$$
>  <Compound>
O=C(O)/C=C/c1cnc(-c2ccc(O)c(C34CC5CC(CC(C5)C3)C4)c2)cn1 [drawing 30]

>  <Unit tag>
% control

>  <Apoptosis Induction (% control) 5.0 μM>
50

$$$$
>  <Compound>
O=C(O)/C=C/c1ccc(-c2ccc(O)c(C34CC5CC(CC(C5)C3)C4)c2)nc1

>  <Unit tag>
% control

>  <Apoptosis Induction (% control) 5.0 μM>
59

$$$$
>  <Compound>
O=C(O)/C=C/c1cnc(-c2ccc(O)c(C34CC5CC(CC(C5)C3)C4)c2)c(Cl)c1

>  <Unit tag>
% control

>  <Apoptosis Induction (% control) 5.0 μM>
65

$$$$
>  <Compound>
O=C(O)/C=C/c1ccc(-c2ccc(O)c(C34CC5CC(CC(C5)C3)C4)c2)c(Cl)c1

>  <Unit tag>
% control

>  <Apoptosis Induction (% control) 5.0 μM>
55

$$$$
>  <Compound>
O=C(O)/C=C/c1ccc(-c2ccc(O)c(C34CC5CC(CC(C5)C3)C4)c2)cn1

>  <Unit tag>
% control

>  <Apoptosis Induction (% control) 5.0 μM>
52

$$$$
>  <Compound>
O=C(O)/C=C/c1cnc(-c2ccc(O)c(C34CC5CC(CC(C5)C3)C4)c2)nc1 [drawing 23]

>  <Unit tag>
% control

>  <Apoptosis Induction (% control) 5.0 μM>
50

$$$$
>  <Compound>
O=C(O)/C=C/c1ccc(-c2ccc(O)c(C34CC5CC(CC(C5)C3)C4)c2)nn1

>  <Unit tag>
% control

>  <Apoptosis Induction (% control) 5.0 μM>
67

$$$$
